Tested system: PD-1/PD-L1 (Homo sapiens, UniProt Q9NZQ7)
Sequence (Q9NZQ7 19-238 limits assumed): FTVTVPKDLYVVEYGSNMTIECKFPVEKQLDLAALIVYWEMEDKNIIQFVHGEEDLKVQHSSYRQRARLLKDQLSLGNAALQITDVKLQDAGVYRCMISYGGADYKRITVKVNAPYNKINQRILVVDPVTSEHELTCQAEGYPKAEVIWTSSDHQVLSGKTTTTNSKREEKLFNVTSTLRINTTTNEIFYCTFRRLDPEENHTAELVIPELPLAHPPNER
Procedure summary: PD-1/PD-L1 biochemical protein-protein interaction assay (ALPHA)
Experimental setup: 0.3 nM His tagged PD-L1, 2.5 nM biotinylated Fc-PD-1; 60 minutes at 25° C.; read-out: IC50 PD-L1-PD1
Listing: pIC50 of selected compounds
pIC50 is defined as minus the log10 of a concentration measured in mol/L.

Kindly note the recorded pIC50 for COc1nc(-c2cccc(-c3cccc(-c4nc5c(s4)CNCC5)c3Cl)c2Cl)ccc1CNC[C@@H]1CCC(=O)N1 [Compound 35] , which is 9.09

Entry Cc1c(COc2cc(OCc3cncc(C#N)c3)c(CN[C@@](C)(CO)C(=O)O)cc2Cl)cccc1-c1cccc(-c2ccc3c(c2)CNCC3)c1C [Compound 5] ; pIC50 = 9.87

Given item Cc1c(COc2cc(OCc3cncc(C#N)c3)c(CN[C@@](C)(CO)C(=O)O)cc2Cl)cccc1-c1cccc(-c2ccc3c(c2)CNCC3N)c1C (stereo partly shown) [Compound 18] , the value recorded as its pIC50 is 9.80

# compound COc1nc(-c2cccc(-c3cccc(-c4nc5n(n4)CCNC5)c3Cl)c2Cl)ccc1CNC[C@@H]1CCC(=O)N1 [Compound 30] ; its pIC50 = 9.61

In plain terms, COc1nc(-c2cccc(-c3cccc(-c4nc5c(s4)CNCC5)c3Cl)c2Cl)ccc1CNCCO [Compound 31] has a documented pIC50 of 9.37

Documented pIC50 of CC(=O)NCC1Cc2ccc(-c3cccc(-c4cccc(COc5cc(OCc6cncc(C#N)c6)c(CN[C@@](C)(CO)C(=O)O)cc5Cl)c4C)c3C)cc2CN1 (stereo partly shown) [Compound 26] : 10.19

Form field pIC50, entry Cc1c(COc2cc(OCc3cc(Cl)cc(C#N)c3)c(CN[C@@](C)(CO)C(=O)O)cc2Cl)cccc1-c1cccc(-c2ccc3c(c2)CNCC3)c1C [Compound 7] : 9.02

get_value(item= Cc1c(COc2cc(OCCCC#N)c(CN[C@@](C)(CO)C(=O)O)cc2Cl)cccc1-c1cccc(-c2ccc3c(c2)CNCC3)c1C [Compound 9] , readout=pIC50) returns 9.90

// recorded pIC50 for C[C@@](CO)(NCc1cc(Cl)c(OCc2cccc(-c3cccc(-c4ccc5c(c4)CNCC5)c3Cl)c2Cl)nc1OCc1cc(C#N)cc(C#N)c1)C(=O)O [Compound 28] : 9.44

// field: pIC50; key: COc1nc(-c2cccc(-c3cccc(-c4cc5c(s4)CCNC5)c3Cl)c2Cl)ccc1CN1CC2(CCC(=O)N2)C1 [Compound 32] ; value = 8.95

Lookup result for CNC(=O)NC1CNCc2cc(-c3cccc(-c4cccc(-c5ccc(CNC[C@@H]6CCC(=O)N6)c(OC)n5)c4Cl)c3Cl)ccc21 (stereo partly shown) [Compound 12] ; measured pIC50: 9.77

pIC50 reported for this compound CNC(=O)NC1CNCc2cc(-c3cccc(-c4cccc(COc5cc(OCc6cncc(C#N)c6)c(CNC[C@@H](O)CC(=O)O)cc5Cl)c4C)c3C)ccc21 (stereo partly shown) [Compound 20] : 10.19

Reported pIC50 of COc1nc(-c2cccc(-c3cccc(-c4nc5c(s4)CCNC5)c3Cl)c2Cl)ccc1CNC[C@@H]1CCC(=O)N1 [Compound 36] : 9.23
